Origin of measurements: patent US9980486B2

Some compounds, each annotated with its measured percentage damage caused to the plant, five point scale, IPOHE.
Tested on: Ipomoea hederacea (IPOHE)
TEST_DESCRIPTION: Experiment B1 glasshouse herbicide test, pre- and post-emergence, percentage damage
Assay type: in vivo
CONDITION_CONTEXT: PRE Application (pre-emergence, after cultivation for one day), 1000 g/h, evaluated after 13 days
OBSERVED_PROPERTY: percentage damage caused to the plant, five point scale, IPOHE

Cc1ccc2cc(C(=O)Nc3nnnn3C)c(C)c(-c3ccc(S(C)(=O)=O)cc3)c2n1 [Compound 1.038]
4 (4=60-79%)
COc1ccc(-c2c(C)c(C(=O)Nc3nnnn3C)cc3ccc(C)nc23)cc1 [Compound 1.037]
4 (4=60-79%)
Cc1c(C(=O)Nc2nnnn2C)cc2cccnc2c1-c1ccc(Cl)cc1 [Compound 1.036]
5 (5=80-100%)
Cn1nnnc1NC(=O)c1cc2cccnc2c(-c2ccccc2)c1C(F)(F)F [Compound 1.001]
5 (5=80-100%)
CSc1ccc(-c2c(C)c(C(=O)Nc3nnnn3C)cc3cccnc23)cc1 [Compound 1.030]
4 (4=60-79%)
COc1ccc(-c2c(C)c(C(=O)Nc3nnnn3C)cc3cccnc23)cc1 [Compound 1.034]
5 (5=80-100%)
Cc1ccc(-c2c(C(F)(F)F)c(C(=O)Nc3nnnn3C)cc3cccnc23)cc1 [Compound 1.017]
5 (5=80-100%)
CCn1nnnc1NC(=O)c1cc2cccnc2c(-c2ccccc2)c1C(F)(F)F [Compound 1.002]
5 (5=80-100%)
